Experiment: Half life in cancer patient at 20 mg for 60 mins treated 2/1 cycle/day
Format: ADME, organism-based
Parameters: dosed compound name LY2090314
Conditions: human, in vivo
experimental-readout: half-life (h)
Response body: numeric value in h, unit text excluded.

Query: half-life; subject: O=C1NC(=O)C(c2cnc3ccccn23)=C1c1cn2c3c(cc(F)cc13)CN(C(=O)N1CCCCC1)CC2
1.92

###

Test: AUC (0 to infinity) in cancer patient at 10 mg for 60 mins treated 2/1 cycle/day
Type: ADME, organism-based
Design: dose 10 mg, time infinity, dosed compound name LY2090314
Details: human, plasma
experimental-readout: AUC(0-inf)
The reply should consist of the numeric value with the unit placed after it.

Query: AUC(0-inf); subject: O=C1NC(=O)C(c2cnc3ccccn23)=C1c1cn2c3c(cc(F)cc13)CN(C(=O)N1CCCCC1)CC2
192 ng·h/mL

###

Assay: Tmax in cancer patient at 60 mg for 60 mins treated 1/8 cycle/day
Assay type: ADME, organism-based
Set-up: dosed compound name LY2090314
Details: human, in vivo
experimental-readout: Tmax (min)
Response body: numeric value in min, unit text excluded.

Query: Tmax; subject: O=C1NC(=O)C(c2cnc3ccccn23)=C1c1cn2c3c(cc(F)cc13)CN(C(=O)N1CCCCC1)CC2 [LY-2090314]
55.2

###

Experiment: Half life in cancer patient at 60 mg for 60 mins treated 1/8 cycle/day
Type: ADME, organism-based
Parameters: dosed compound name LY2090314
Settings: human, in vivo
experimental-readout: half-life (h)
Response body: numeric value in h, unit text excluded.

Query: half-life; subject: O=C1NC(=O)C(c2cnc3ccccn23)=C1c1cn2c3c(cc(F)cc13)CN(C(=O)N1CCCCC1)CC2 [LY-2090314]
3.35

###

Test: Tmax in Sprague-Dawley rat at 5 mg/kg, iv administered for 30 mins
Assay type: ADME, organism-based
Parameters: dose 5 mg/kg, dosed compound name [14C]LY2090314, route intravenous
Settings: in vivo
experimental-readout: Tmax (min)
Response body: numeric value in min, unit text excluded.

Query: Tmax; subject: O=C1NC(=O)C(c2cnc3ccccn23)=C1c1cn2c3c(cc(F)cc13)CN(C(=O)N1CCCCC1)CC2 [LY-2090314]
30

###

Test: Volume of distribution at steady state in cancer patient at 20 mg for 60 mins treated 1/1 cycle/day
Format: ADME, organism-based
Set-up: dosed compound name LY2090314
Conditions: human, in vivo, read-out: Vdss
experimental-readout: Vd (L)
Response body: numeric value in L, unit text excluded.

Query: Vd; subject: O=C1NC(=O)C(c2cnc3ccccn23)=C1c1cn2c3c(cc(F)cc13)CN(C(=O)N1CCCCC1)CC2
77.5

###

Assay: Half life in cancer patient at 20 mg for 60 mins treated 1/1 cycle/day
Type: ADME, organism-based
Design: dosed compound name LY2090314
Settings: human, in vivo
experimental-readout: half-life (h)
Response body: numeric value in h, unit text excluded.

Query: half-life; subject: O=C1NC(=O)C(c2cnc3ccccn23)=C1c1cn2c3c(cc(F)cc13)CN(C(=O)N1CCCCC1)CC2 [LY-2090314]
1.84

###

Experiment: AUC (0 to infinity) in cancer patient at 10 mg for 60 mins treated 1/1 cycle/day
Format: ADME, organism-based
Parameters: dose 10 mg, time infinity, dosed compound name LY2090314
Details: human, plasma
experimental-readout: AUC(0-inf) (ng·h/mL)
Response body: numeric value in ng·h/mL, unit text excluded.

Query: AUC(0-inf); subject: O=C1NC(=O)C(c2cnc3ccccn23)=C1c1cn2c3c(cc(F)cc13)CN(C(=O)N1CCCCC1)CC2 [LY-2090314]
216
